Just for reference, patent US20240124434A1 is where these values come from.

# Experiment: in vivo
# Run conditions: Balb/c, mouse, po, 10 mg/kg
Reported half-life values for a set of molecules
Provide the reading as a plain figure in h.

- Molecule: "C[C@H](c1ccc(C(F)(F)F)cc1C(F)(F)F)n1cc(NC(=O)c2nnc(-c3ccccn3)s2)cn1 [Compound 123]"
  Readout kind: "half-life"
  Measurement unit: "h"
  Meas value: 19.1
- Molecule: "O=C(Nc1cnn(Cc2ccc(C(F)(F)F)cc2C(F)(F)F)c1)c1cc(-c2cnccn2)on1 [Compound 114]"
  Readout kind: "half-life"
  Measurement unit: "h"
  Meas value: 8.66
- Molecule: "O=C(Nc1cnn(Cc2ccc(C(F)(F)F)cc2C(F)(F)F)c1)c1cc(-c2ccccn2)on1 [Compound 11]"
  Readout kind: "half-life"
  Measurement unit: "h"
  Meas value: 6.24
- Molecule: "C[C@H](c1ccc(C(F)(F)F)cc1C(F)(F)F)n1cc(NC(=O)c2cc(-c3cnccn3)on2)cn1 [Compound 131]"
  Readout kind: "half-life"
  Measurement unit: "h"
  Meas value: 6.16
- Molecule: "C[C@H](c1ccc(C(F)(F)F)cc1C(F)(F)F)n1cc(NC(=O)c2cc(-c3ccccn3)no2)cn1 [Compound 76]"
  Readout kind: "half-life"
  Measurement unit: "h"
  Meas value: 4.54
- Molecule: "CC(c1ccc(C(F)(F)F)cc1C(F)(F)F)n1cc(NC(=O)c2cc(-c3ccco3)on2)cn1 (single isomer, unassigned) [“Enantiomer A” of Example S6]"
  Readout kind: "half-life"
  Measurement unit: "h"
  Meas value: 1.6

Answer with reported half-life of CC(c1ccc(C(F)(F)F)cc1C(F)(F)F)n1cc(NC(=O)c2cc(-c3ccccn3)on2)cn1 (single isomer, unassigned) [“Enantiomer A” of Example S5]
6.88

* * *

# Experiment: In vitro microsomal stability, human liver microsomes
# Format: in vitro ADME
# Run conditions: human, human liver microsomes, pH 7.4; read-out: T1/2 @ hLM
Readout kind: half-life at […], 1 µM (h)
Report the figure in h without appending any unit label.

Study these solved cases before continuing.
- Compound: "C[C@H](c1ccc(C(F)(F)F)cc1C(F)(F)F)n1cc(NC(=O)c2cnc(-c3ccccn3)s2)cn1 [Compound 104]"
  Meas value: 1.22
- Compound: "CC(c1ccc(C(F)(F)F)cc1C(F)(F)F)n1cc(NC(=O)c2cnc(-c3ccccn3)s2)cn1 (centres unmarked) [Compound 78]"
  Meas value: 1.59
- Compound: "CC(c1ccc(C(F)(F)F)cc1C(F)(F)F)n1cc(NC(=O)c2nnc(-c3cnccn3)s2)cn1 (centres unmarked) [Compound 136]"
  Meas value: 1.57
- Compound: "C[C@H](c1ccc(C(F)(F)F)cc1C(F)(F)F)n1cc(NC(=O)c2cn(-c3ccccn3)nn2)cn1 [Compound 121]"
  Meas value: 2.22
- Compound: "Cc1c(NC(=O)c2cc(-c3ccco3)on2)cnn1Cc1ccc(C(F)(F)F)cc1C(F)(F)F [Compound 93]"
  Meas value: 1.27
- Compound: "C[C@H](c1ccc(C(F)(F)F)cc1C(F)(F)F)n1cc(NC(=O)c2nnc(-c3cnccn3)s2)cn1 [Compound 152]"
  Meas value: 2.32
- Compound: "CN(C(=O)c1cc(-c2ccccn2)on1)c1cnn(Cc2ccc(C(F)(F)F)cc2C(F)(F)F)c1 [Compound 103]"
  Meas value: 0.0897
- Compound: "C[C@H](c1ccc(C(F)(F)F)cc1C(F)(F)F)n1cc(NC(=O)c2cc(-c3ccccn3)no2)cn1 [Compound 76]"
  Meas value: 0.96
- Compound: "O=C(Nc1cnn(Cc2ccc(C(F)(F)F)cc2C(F)(F)F)c1)c1cc(-c2ccccn2)on1 [Compound 11]"
  Meas value: 1.12
- Compound: "O=C(Nc1cnn(Cc2ccc(C(F)(F)F)cc2C(F)(F)F)c1)c1cc(-c2cnccn2)on1 [Compound 114]"
  Meas value: 3.55

Find the measured half-life at […], 1 µM of C[C@H](c1ccc(C(F)(F)F)cc1C(F)(F)F)n1cc(NC(=O)c2nnc(-c3ccccn3)s2)cn1 [Compound 123] and report it.
7.67

* * *

# Experiment: In vitro microsomal stability, mouse liver microsomes
# Assay type: in vitro ADME
# Run conditions: pH 7.4; intrinsic clearance; mouse liver microsomes; read-out: Clint @ mLM
Some molecules, each annotated with its measured microsomal CLint at […], 1 µM.
Answer in µL/min/mg, number only, no unit symbol.

Consider the reported microsomal CLint at […], 1 µM for these molecules:
- Molecule: "C[C@H](c1ccc(C(F)(F)F)cc1C(F)(F)F)n1cc(NC(=O)c2cc(-c3ccccn3)no2)cn1 [Compound 76]"
  microsomal CLint at […], 1 µM (µL/min/mg): 19.3
- Molecule: "Cc1c(NC(=O)c2cc(-c3ccccn3)on2)cnn1[C@H](C)c1ccc(C(F)(F)F)cc1C(F)(F)F [Compound 97]"
  microsomal CLint at […], 1 µM (µL/min/mg): 52.2
- Molecule: "C[C@H](c1ccc(F)cc1C(F)(F)F)n1cc(NC(=O)c2cc(-c3ccccn3)on2)cn1 [Compound 110]"
  microsomal CLint at […], 1 µM (µL/min/mg): 97.7

Next molecule, please.
Please report microsomal CLint at […], 1 µM for the following molecule: CC(c1ccc(C(F)(F)F)cc1C(F)(F)F)n1cc(NC(=O)c2cnc(-c3ccccn3)s2)cn1 (stereo not shown) [Compound 78]
17.6

* * *

# System: CYP3A4 (Homo sapiens (Human))
# Sequence (P08684 whole entry): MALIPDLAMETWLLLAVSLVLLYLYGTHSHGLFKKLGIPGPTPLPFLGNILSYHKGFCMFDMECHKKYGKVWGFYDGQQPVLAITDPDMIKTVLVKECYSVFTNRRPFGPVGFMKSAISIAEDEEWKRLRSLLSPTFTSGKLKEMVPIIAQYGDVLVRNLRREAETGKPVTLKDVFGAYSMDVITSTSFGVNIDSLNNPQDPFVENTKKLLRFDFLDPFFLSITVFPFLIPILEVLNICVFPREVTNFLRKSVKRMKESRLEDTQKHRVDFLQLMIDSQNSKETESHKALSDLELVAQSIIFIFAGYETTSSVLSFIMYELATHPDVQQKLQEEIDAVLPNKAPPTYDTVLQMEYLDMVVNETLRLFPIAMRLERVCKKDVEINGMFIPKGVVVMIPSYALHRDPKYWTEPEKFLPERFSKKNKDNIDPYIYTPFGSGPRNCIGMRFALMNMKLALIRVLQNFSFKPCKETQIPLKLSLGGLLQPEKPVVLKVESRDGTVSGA
# Experiment: CYP inhibition in human liver microsomes
Readout kind: IC50

- Compound: "CC(c1ccc(C(F)(F)F)cc1C(F)(F)F)n1cc(NC(=O)c2cc(-c3ccco3)on2)cn1 (single isomer, unassigned) [“Enantiomer A” of Example S6]"
  Readout kind: "IC50"
  Meas value: "> 50 µM"

For the next question, use this compound.
Given CC(c1ccc(C(F)(F)F)cc1C(F)(F)F)n1cc(NC(=O)c2cc(-c3ccccn3)on2)cn1 (single isomer, unassigned) [“Enantiomer A” of Example S5] , report its IC50 on CYP3A4 (Homo sapiens (Human)).
> 50 µM

* * *

# Experiment: In vitro microsomal stability, rat liver microsomes
# Type: in vitro ADME
# Run conditions: rat, rat liver microsomes, pH 7.4; read-out: T1/2 @ rLM
Entry class follows half-life at 1 μM: LOW = under 30 min, MEDIUM = from 30 min up to 60 min, HIGH = 60 min and over

Here's what some known entries look like.
- Compound: "Cc1c(NC(=O)c2cc(-c3ccco3)on2)cnn1Cc1ccc(C(F)(F)F)cc1C(F)(F)F [Compound 93]"
  Qualitative label: "HIGH"
- Compound: "O=C(Nc1cnn(Cc2ccc(C(F)(F)F)cc2C(F)(F)F)c1)c1cc(-c2ccccn2)on1 [Compound 11]"
  Qualitative label: "MEDIUM"
- Compound: "CN(C(=O)c1cc(-c2ccccn2)on1)c1cnn(Cc2ccc(C(F)(F)F)cc2C(F)(F)F)c1 [Compound 103]"
  Qualitative label: "LOW"

Which half-life at 1 μM category applies to Cc1nn([C@H](C)c2ccc(C(F)(F)F)cc2C(F)(F)F)cc1NC(=O)c1cc(-c2ccccn2)on1 [Compound 99] here?
MEDIUM

Class for C[C@H](c1ccc(C(F)(F)F)cc1C(F)(F)F)n1cc(NC(=O)c2cnc(-c3ccccn3)s2)cn1 [Compound 104] ?
HIGH

Into which bin does this compound go? CC(c1ccc(C(F)(F)F)cc1C(F)(F)F)n1cc(NC(=O)c2nnc(-c3cnccn3)s2)cn1 (centres unmarked) [Compound 136]
MEDIUM

Using the reported half-life at 1 μM, which band applies to Cc1nn([C@@H](C)c2ccc(C(F)(F)F)cc2C(F)(F)F)cc1NC(=O)c1cc(-c2ccccn2)on1 [Compound 100] ?
MEDIUM

In plain terms, what class is C[C@H](c1ccc(F)cc1C(F)(F)F)n1cc(NC(=O)c2cc(-c3ccccn3)on2)cn1 [Compound 110] ?
MEDIUM

Bin this entry: CC(c1ccc(C(F)(F)F)cc1C(F)(F)F)n1cc(NC(=O)c2cc(-c3ccco3)on2)cn1 (single isomer, unassigned) [“Enantiomer A” of Example S6]
LOW

* * *

Known IC50 of a selection of compounds
# System: CYP2C9 (Homo sapiens (Human))
# Sequence (P11712 whole entry): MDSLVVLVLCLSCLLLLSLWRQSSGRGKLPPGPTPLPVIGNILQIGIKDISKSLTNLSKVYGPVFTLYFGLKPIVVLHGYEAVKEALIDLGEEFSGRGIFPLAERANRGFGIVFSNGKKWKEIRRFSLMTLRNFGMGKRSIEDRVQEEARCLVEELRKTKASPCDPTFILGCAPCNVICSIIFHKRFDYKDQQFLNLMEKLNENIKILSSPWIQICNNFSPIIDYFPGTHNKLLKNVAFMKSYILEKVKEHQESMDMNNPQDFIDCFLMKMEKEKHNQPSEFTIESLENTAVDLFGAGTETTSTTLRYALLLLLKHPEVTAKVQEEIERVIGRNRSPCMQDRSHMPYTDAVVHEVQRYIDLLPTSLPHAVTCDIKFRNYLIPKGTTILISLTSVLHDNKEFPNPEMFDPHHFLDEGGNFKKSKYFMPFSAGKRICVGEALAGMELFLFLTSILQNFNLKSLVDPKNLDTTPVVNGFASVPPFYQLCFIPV
# Experiment: CYP inhibition in human liver microsomes
Give your result in µM as a bare value.

- Compound: "CC(c1ccc(C(F)(F)F)cc1C(F)(F)F)n1cc(NC(=O)c2cc(-c3ccccn3)on2)cn1 (single isomer, unassigned) [“Enantiomer A” of Example S5]"
  Measurement unit: "µM"
  Meas value: 3.07

Now let's try a different one.
For CYP2C9 (Homo sapiens (Human)), give IC50 of the listed compound: CC(c1ccc(C(F)(F)F)cc1C(F)(F)F)n1cc(NC(=O)c2cc(-c3ccco3)on2)cn1 (single isomer, unassigned) [“Enantiomer A” of Example S6]
7.88
